Tested on: PC-3 prostate
Assay: NCI-60 one-dose screen, 48 h
Details: 10 µM unless noted
This is part of a sample that, as a whole, favours compounds with a hit. Of some 83,000 tested, about 20% had one in any assay. Calls of active or inactive are those of the source. The calls were made as follows: active = growth percent below 10; inactive = the rest.
Select the matching outcome among active, inactive

Observe how each entry below is paired with its result.
{"columns": ["Compound", "System Tested", "Assigned Class"],
 "data": [
  ["CC(Nc1ncnc2ccc(-c3ccc4oc(N)nc4c3)cc12)c1ccccc1 (centres undefined)", "PC-3 prostate", "inactive"],
  ["C/C(=N\\Nc1ccc(S(N)(=O)=O)cc1)c1cnn(-c2cc(=O)[nH]c3ccc(Br)cc23)c1C", "PC-3 prostate", "inactive"],
  ["COc1cc(CNC(=O)C[C@H](C)CCC=C(C)C)ccc1OCc1cn(-c2cccc(C(F)(F)F)c2)nn1", "PC-3 prostate", "inactive"],
  ["Cc1cc(C2(c3cc(C)c(OCC(O)CNc4c(C)n(C)n(-c5ccccc5)c4=O)cc3C(C)C)OC(=O)c3ccccc32)c(C(C)C)cc1OCC(O)CNc1c(C)n(C)n(-c2ccccc2)c1=O (centres undefined)", "PC-3 prostate", "inactive"],
  ["Cc1ccc(C2CC(c3ccc(NC(=O)Nc4ccccc4)cc3)=NN2c2ccc(S(N)(=O)=O)cc2)cc1 (centres undefined)", "PC-3 prostate", "active"]
]}

Inquiry: Assay outcome for CC(C)(C)C(=O)C1CC(C#N)=C2C=Cc3c(ccc4ccccc34)N21 (centres undefined) : what was it?
Reply text: inactive

Inquiry: Assay outcome for Fc1ccccc1CNc1nc(SCCN2CCOCC2)nc2c1cnn2CC(Cl)c1ccc(Br)cc1 (centres undefined) : what was it?
Reply text: inactive

Inquiry: Assay outcome for ClC(Cn1ncc2c(Nc3cccc(Br)c3)nc(SCCN3CCOCC3)nc21)c1ccc(Br)cc1 (centres undefined) : what was it?
Reply text: inactive

Inquiry: Assay outcome for COc1cccc(NC(=O)c2ccc(NC(=O)CCl)s2)c1 : what was it?
Reply text: active

====

System: SK-OV-3 ovarian
Experiment: NCI-60 one-dose screen, 48 h (100 = growth as untreated, 0 = no growth, -100 = all killed)
Conditions: 10 µM unless noted
Compounds without any hit were thinned out: in the full panel of roughly 83,000, 20% have a hit.
# Yes = growth below 60% (exclusive); No = growth at/above 60%

Inquiry: # TODO verify growth < 60% strictly for this molecule: Cc1ccc2c(c1)nc(-c1ccccc1)n2CC(=O)N=Nc1c(O)[nH]c2ccc(Cl)cc12
Reply text: Yes

Inquiry: # TODO verify growth < 60% strictly for this molecule: CC(=O)C[n+]1cccc2c3ccccc3ccc21
Reply text: No

Inquiry: # TODO verify growth < 60% strictly for this molecule: Oc1ccc(F)c(Nc2nc(SCCN3CCOCC3)nc3c2cnn3CC(Cl)c2ccc(Br)cc2)c1 (stereo not given)
Reply text: No

Inquiry: # TODO verify growth < 60% strictly for this molecule: O=C(N=Nc1c(O)[nH]c2ccc(Br)cc12)c1ccc2nc(-c3ccc(Cl)cc3)[nH]c2c1
Reply text: Yes

Inquiry: # TODO verify growth < 60% strictly for this molecule: O=C(N/N=C/c1ccc(Cl)o1)c1[nH]c2ccc(Br)cc2c1-c1ccccc1
Reply text: Yes

Inquiry: # TODO verify growth < 60% strictly for this molecule: COc1cc(C=O)ccc1OC(=O)c1cc(-c2ccc(C)cc2)n(-c2ccc(S(C)(=O)=O)cc2)n1
Reply text: No

Inquiry: # TODO verify growth < 60% strictly for this molecule: Cn1cc(-c2cc(N)n3nc(-c4c[nH]c5ccccc45)cc3n2)c2cc(F)ccc21
Reply text: No

Inquiry: # TODO verify growth < 60% strictly for this molecule: CCCn1c(NC(=O)c2cccc(C(N)=O)c2)nc2cc(CN3CCCCC3)ccc21
Reply text: No

Inquiry: # TODO verify growth < 60% strictly for this molecule: COc1cc(C2CC(c3cc(OC)c(OC)c(OC)c3)=Nc3c(N)nc(N)nc3N2)ccc1Oc1nc(Nc2ccc(F)cc2)nc(N(C)C)n1 (stereo not given)
Reply text: No

Inquiry: # TODO verify growth < 60% strictly for this molecule: CN(C(=O)CN1C(=O)/C(=C/c2ccco2)SC1=S)C1CCS(=O)(=O)C1 (stereo not given)
Reply text: No

====

Test system: U251 CNS
Assay: NCI-60 one-dose screen, 48 h (100 = growth as untreated, 0 = no growth, -100 = all killed)
Settings: 10 µM unless noted
This is part of a sample that, as a whole, favours compounds with a hit. Of some 83,000 tested, about 20% had one in any assay.
I'd appreciate it if you could label each record using growth and these ranges: 1: < -30%; 2: ≥ -30% and < 30%; 3: ≥ 30%

{"columns": ["Molecule", "Assigned Class"],
 "data": [
  ["O=C1N/C(=N\\c2nccs2)S/C1=C\\c1ccc([N+](=O)[O-])cc1", 2],
  ["NNc1ncnc2sc3c(c12)CCN(Cc1ccccc1)C3", 3],
  ["CN(C)c1nc(NCCNS(=O)(=O)c2ccc(C(=O)/C=C/c3ccc(C(F)(F)F)cc3)cc2)nc(N2CCOCC2)n1", 1],
  ["O=C(CSc1nc2sc3c(c2c(=O)n1-c1ccc(Cl)cc1)CCCC3)N/N=C/C=C/c1ccccc1", 1],
  ["COc1cc(CNC(=O)C[C@H](C)CCC=C(C)C)ccc1OCc1cn(-c2ccc(Cl)c(Cl)c2)nn1", 3],
  ["N#C/C(=C/c1ccc(Cl)cc1)c1nnc(NC(=O)c2ccc(-n3c(=O)[nH]c4ccccc4c3=O)cc2)s1", 2]
]}

Inquiry: Kindly identify the class of COc1ccc2c(c1)C(Sc1ccc(Cl)cc1)c1c(nc(N)c(C#N)c1N)O2 (stereo not drawn) .
Reply text: 3

Inquiry: Kindly identify the class of O=C(Cc1c(-c2cccc([N+](=O)[O-])c2)n(-c2ncnc3c2c(-c2ccccc2)c(-c2ccccc2)n3Cc2ccccc2)[nH]c1=O)c1ccc(Cl)c(Cl)c1 .
Reply text: 2

Inquiry: Kindly identify the class of O=CNc1cccc(-n2cnc3cc(-c4ccc(O)cc4)ccc32)c1 .
Reply text: 2

Inquiry: Kindly identify the class of C#CCN(C)CCCOc1ccc(N(CC)C(=O)c2cc(C(C)C)c(O)cc2O)cc1Cl .
Reply text: 2

Inquiry: Kindly identify the class of O=C(NNC(=S)NC(=O)c1ccccc1)c1ccc(OCc2nc3ccc(Cl)cc3[nH]2)cc1 .
Reply text: 1

Inquiry: Kindly identify the class of O=C(N/N=C/c1ccc(B(O)O)s1)c1[nH]c2ccc(Br)cc2c1-c1ccccc1 .
Reply text: 1

Inquiry: Kindly identify the class of COc1ccc(/C=C/c2nc3ccccc3c(=O)n2CC(=O)Nc2ccccc2)cc1 .
Reply text: 2

====

Quick list: growth per entry.
System: OVCAR-3 ovarian
Assay: NCI-60 one-dose screen, 48 h (100 = growth as untreated, 0 = no growth, -100 = all killed)
Details: 10 µM unless noted
About 83,000 compounds went through this panel and 20% of them were active in at least one assay; those are over-represented in the sample as a whole.
Give just the numeric value; % need not be written.

Answered cases to consult:
{"columns": ["Compound", "System Tested", "Units Of Measure", "growth"],
 "data": [
  ["Cc1ccc2nc(NC(=O)Nc3cccc(Cl)c3)sc2c1", "OVCAR-3 ovarian", "%", 123],
  ["Cc1[nH]nc2ccc3nc(-c4cnn(CCO)c4)c4c(c3c12)CCCC4", "OVCAR-3 ovarian", "%", 90.2],
  ["Nc1cc(-c2c[nH]c3ccc(F)cc23)nc2cc(-c3c[nH]c4ccccc34)nn12", "OVCAR-3 ovarian", "%", 28.8],
  ["O=C(CSc1nc2sc3c(c2c(=O)n1-c1ccc(Cl)cc1)CCCC3)NNC(=O)c1ccc(F)cc1", "OVCAR-3 ovarian", "%", 119],
  ["COc1ccc(-c2cc(C(=O)OCc3ccc(Br)cc3)nn2-c2ccc(S(C)(=O)=O)cc2)cc1OC", "OVCAR-3 ovarian", "%", 80.3],
  ["O=C(N/N=C/c1ccoc1)c1[nH]c2ccc(Br)cc2c1-c1ccccc1", "OVCAR-3 ovarian", "%", -45.8],
  ["O=C1CC(c2ccc(I)cc2)OC2C=Cc3ccccc3C12 (stereo not drawn)", "OVCAR-3 ovarian", "%", 125],
  ["O=c1[nH]c2ccccc2cc1COc1ccc(Nc2nccc(-c3ccc(Cl)cc3)n2)cc1", "OVCAR-3 ovarian", "%", 138],
  ["O=C(Cc1c(-c2ccccc2[N+](=O)[O-])n(-c2ncnc3c2c(-c2ccccc2)c(-c2ccccc2)n3Cc2ccccc2)[nH]c1=O)c1ccc(Cl)c(Cl)c1", "OVCAR-3 ovarian", "%", 14.2],
  ["Cc1ccc(C2CC(c3ccc(NC(=S)Nc4ccccc4)cc3)=NN2c2ccc(S(N)(=O)=O)cc2)cc1 (stereo not drawn)", "OVCAR-3 ovarian", "%", 2.37]
]}

Value of growth reported for the compound Cc1nn(-c2ccccc2)c2ncn(CC(=O)N/N=C/c3ccccc3O)c(=O)c12 is 18

Value of growth reported for the compound Cc1cc(Cl)ccc1NC(=O)Nc1ccc(-c2ccc3c(c2)NC(=O)/C3=C\c2ccc[nH]2)cc1 is 119

Value of growth reported for the compound COC(=O)c1cc(C(=O)C(C)(C)C)n2c3ccccc3c3ccccc3c12 is 110

Value of growth reported for the compound Cc1ccc(Nc2nnc(-c3c[nH]c4ccccc34)o2)c(C)c1 is 12.3

Value of growth reported for the compound Cc1nc(Nc2ccccn2)sc1C1=NNC(c2ccccc2F)C1 (stereo not drawn) is 24.8

Value of growth reported for the compound O=C(NN1C(=O)/C(=C/C=C/c2ccc([N+](=O)[O-])o2)SC1=S)c1ccncc1 is -100

Value of growth reported for the compound Nc1cc2ccccc2c(=O)n1NC(=O)c1ccc(Br)cc1 is 79.2

Value of growth reported for the compound O=C1Nc2ccccc2/C1=C\c1ccc(OCC(=O)c2ccc(Br)cc2)cc1 is 77.5

Value of growth reported for the compound N/C(=N\c1nc2ccc([N+](=O)[O-])cc2s1)NC(=O)Nc1ccccc1Cl is -52.8

Value of growth reported for the compound CN(C(=O)CN1C(=O)/C(=C/c2ccco2)SC1=S)C1CCS(=O)(=O)C1 (stereo not drawn) is 99.9

Value of growth reported for the compound N#CC1=C(c2ccco2)Nc2c(c(-c3ccccc3)nn2-c2ccccc2)C12C(=O)Nc1ccc(Br)cc12 (stereo not drawn) is 42.5

Value of growth reported for the compound c1ccc(CSc2nnc(-c3ccc4nc(-c5ccccc5)[nH]c4c3)o2)cc1 is 27.4

Value of growth reported for the compound COc1ccc(-n2c(NC(=O)N3CCN(C)CC3)c(C#N)c3ccccc32)cc1 is 42.6

Value of growth reported for the compound COc1ccc(N=Nc2c(N)nn3c(N)c(C#N)c(-c4ccccc4)nc23)cc1 is -6.99

Value of growth reported for the compound c1n[nH]cc1-c1nc2ccc3cn[nH]c3c2c2c1CCCC2 is 109

Value of growth reported for the compound CS(=O)(=O)Nc1cccc(-n2cnc3cc(-c4ccc(O)cc4)ccc32)c1 is 30.7

Value of growth reported for the compound CCCCCCCOc1ccc(S(=O)(=O)Nc2ccc(C)c(F)c2C(=O)O)cc1 is 99.9

Value of growth reported for the compound C/C(=N/O)c1ccc(NC(=O)CSc2nnc(-c3ccc4nc(-c5ccc(Cl)cc5)[nH]c4c3)o2)cc1 is 84.7

Value of growth reported for the compound CC(C)CN1C(=O)/C(=C\C(=O)c2cc3ccccc3oc2=O)c2ccccc21 is 51.1

Value of growth reported for the compound CCN(C(=O)CN1C(=O)/C(=C/c2ccco2)SC1=S)C1CCS(=O)(=O)C1 (stereo not drawn) is 103
